Attribution: PubChem BioAssay (NCATS)

# Tested on: MKL-2
# ASSAY_REMARKS: qHTS assay to identify novel small-molecules to repurpose for Merkel cell carcinoma treatment (AID 1296009); note: % is set by controls: 0 for no effect and ±100 for the full control effect; nearly all actives have a fitted effect of over 60% in size
# MEASUREMENT_PARAMETERS: MCC and control cell lines, CellTiter-Glo viability, 72 h; series mostly up to 46 µM
# Excerpt: MCC is a rare and aggressive neuroendocrine skin cancer with limited treatment options. Approximately 80% of MCCs have the Merkel cell polyomavirus (MCPyV) DNA integrated into the host genome (virus-positive: VP-MCC) and viral oncogenes drive oncogenesis. The remaining MCCs are virus-negative (VN-MCC) and are caused by UV mutagenesis. […] Using cell viability as a readout (CellTiter-Glo assay) we found both overlapping and distinct drugs that can be repurposed for the treatment of VP-MCC and VN-MCC. […]
Records with an inconclusive call do not appear. The source made the active and inactive calls. Calls come from the whole dose curve; as a rule, active = well fitted inhibition curve with a large enough effect; inconclusive = small, poorly fitted or top-dose-only effect; inactive = flat fitted curve, though single readings scatter.
Hi! Could you answer with just one of these? yes (1) for active, no (0) for inactive

Illustrative cases are given below, each with its answer.
{"MOLECULE": "O=C(O)Cn1c(=O)n(Cc2ccc(Br)cc2F)c(=O)c2ccc(Cl)cc21", "CLASS_ASSIGNMENT": "no (0)"}
{"MOLECULE": "Cc1c(F)cc2c(=O)c(C(=O)O)cn3c2c1CCC3C (stereo not given)", "CLASS_ASSIGNMENT": "no (0)"}
{"MOLECULE": "CC(C)=CCC/C(C)=C/CC/C(C)=C/CCC(=O)OC/C=C(\\C)CCC=C(C)C", "CLASS_ASSIGNMENT": "no (0)"}

Prompt: Look up the recorded call for CCN(CC)CC(=O)Oc1ccc(NC(C)=O)cc1 in this test.
Response: no (0)

Prompt: Write down the call the test reported for this molecule. Item: Cc1ccc(C(=O)C(=O)O)cc1C
Response: no (0)

Prompt: Query: recorded result category for COC(=O)c1cc(Cl)ccc1OC in this test
Response: no (0)

Prompt: # outcome recorded in this test, key = O=C(OCC1(COC(=O)c2cccnc2)CCCC(COC(=O)c2cccnc2)(COC(=O)c2cccnc2)C1O)c1cccnc1
Response: no (0)

Prompt: # outcome recorded in this test, key = COc1cc(OC)nc(O[C@H](C(=O)O)C(OC)(c2ccccc2)c2ccccc2)n1
Response: no (0)
